FYI, the data here is from the supplement of paper PMC12350171.

test system: Shigella flexneri; experiment: growth AUC normalised to DMSO control (fraction of control); higher = less growth inhibition, active = hit call of the paper; details: 20 µM;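 active = AUC significantly below DMSO controls by Student t-fit with adjusted P under 0.01; inactive = not significantly reduced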
Structures can show the parent of a compound that is named as a salt.
Respond only with the outcome that fits, drawn from class 1 for active, class 0 for inactive

compound: CC(C(=O)O)c1ccc2c(c1)Cc1cccnc1O2 (stereo unspecified)
category: class 0

compound: N=C(N)NCCN1CCCCCCC1 [Guanethidine sulfate]
category: class 0

compound: CC(C)NC[C@@H](O)COc1ccc(CC(N)=O)cc1 [(R,+) Atenolol]
category: class 0

compound: COC(=O)C1=C(C)NC(C)=C(C(=O)OCC(C)C)C1c1ccccc1[N+](=O)[O-] (stereo unspecified)
category: class 0

compound: CC(N)C12CC3CC(CC(C3)C1)C2 (stereo unspecified) [Rimantadine hydrochloride]
category: class 0

# next compound below
Input line: Could you check what this test reported for CCOc1ccccc1OCC1CNCCO1 (stereo unspecified) [Viloxazine hydrochloride] ?
Output line: class 0
